# TARGET DESC: chloride intracellular channel-1 (CLIC1) (Homo sapiens, UniProt O00299)
# TEST NAME: whole-cell patch clamp in transfected CHO cells
# Type: cell-based
# Set-up: FLAG-tagged CLIC1-wt expressed in CHO cells
PARAMETER MEASURED: EC50 (µM)

{"COMPOUND": "CC1(C2CCCC2)Cc2cc(OCC(=O)O)c(Cl)c(Cl)c2C1=O (stereo not shown)", "TARGET DESC": "chloride intracellular channel-1 (CLIC1) (Homo sapiens, UniProt O00299)", "UNIT": "µM", "MEASUREMENT": 27.3}

====

# TARGET DESC: chloride intracellular channel-1 (CLIC1) (Homo sapiens, UniProt O00299)
# TEST NAME: patch clamp, whole-cell (U87, GBM CSC, CHO expressing human CLIC1) and outside-out single channel
# Assay type: cell-based
PARAMETER MEASURED: EC50 (mM)

{"COMPOUND SMILES": "CN(C)C(=N)N=C(N)N", "UNIT": "mM", "MEASUREMENT": 2.1}
